Test system: NCI-H1975
Assay Explanation: Antiproliferative activity against human NCI-H1975 cells harboring EGFR L858R/T790M mutant after 72 hrs by MTT assay
Type: functional, cell-based
Test Context: NCI-H1975, 72 h
Property: IC50 (µM)
Lab book: enter the figure in µM, no units written.

IN: May I ask what IC50 has been recorded for C/C=C/c1ccc(Nc2ncnc3cc(OCCOC)c(OCCOC)cc23)cc1 ?
OUT: 27.7

IN: May I ask what IC50 has been recorded for C/C=C/c1ccc(Nc2ncnc3cc(OCc4ccccc4)c(OCc4ccccc4)cc23)cc1 ?
OUT: 44.1

IN: May I ask what IC50 has been recorded for C/C=C/c1ccc(Nc2ncnc3ccc(OCCCN4CCOCC4)cc23)cc1 ?
OUT: 23.9

IN: May I ask what IC50 has been recorded for C/C=C/c1ccc(Nc2ncnc3cc(OC)c(OCCCN4CCOCC4)cc23)cc1 ?
OUT: 38.9

IN: May I ask what IC50 has been recorded for CS(=O)(=O)CCNCc1ccc(-c2ccc3ncnc(Nc4ccc(OCc5cccc(F)c5)c(Cl)c4)c3c2)o1 [LAPATINIB] ?
OUT: 9.08

IN: May I ask what IC50 has been recorded for C/C=C/c1ccc(Nc2ncnc3cc(OCCCN4CCOCC4)c(OC)cc23)cc1 ?
OUT: 10.8

* * *

Property: IC50 (nM)
Lab book: enter the figure in nM, no units written.

IN: IC50 of C/C=C/c1ccc(Nc2ncnc3cc(OCCCN4CCOCC4)c(OCCCN4CCOCC4)cc23)cc1 on UniProt P00533?
OUT: 20.7

* * *

Test system: NCI-H1975
Assay Explanation: Antiproliferative activity against human NCI-H1975 cells harboring EGFR L858R/T790M mutant after 72 hrs by MTT assay
Assay type: functional, cell-based
Test Context: NCI-H1975, 72 h
pIC50: −log10 of the molar value.
Property: pIC50

IN: May I ask what pIC50 has been recorded for C/C=C/c1ccc(Nc2ncnc3cc(OCCN4CCOCC4)c(OC)cc23)cc1 ?
OUT: < 4.00

IN: May I ask what pIC50 has been recorded for C/C=C/c1ccc(Nc2ncnc3ccc(OCCN4CCOCC4)cc23)cc1 ?
OUT: < 4.00

IN: May I ask what pIC50 has been recorded for C/C=C/c1ccc(Nc2ncnc3ccc(-c4ccc(CNCCS(C)(=O)=O)o4)cc23)cc1 ?
OUT: < 4.00

IN: May I ask what pIC50 has been recorded for C/C=C/c1ccc(Nc2ncnc3cc(OC)c(OCCN4CCOCC4)cc23)cc1 ?
OUT: < 4.00

IN: May I ask what pIC50 has been recorded for C/C=C/c1ccc(Nc2ncnc3cc4c(cc23)OCCO4)cc1 ?
OUT: < 4.00
